- Test Details: NCI Yeast Anticancer Drug Screen. Data for the mlh1 rad18 strain (AID 175)
- Experimental Setup: S. cerevisiae mlh1 rad18 strain growth inhibition; at 50.0 µM (retest, dose inferred, filed as 5.0); active compounds read high
This is part of a sample that, as a whole, favours compounds with a hit. Of some 79,000 tested, about 15% had one in any assay.
Response key: Satisfied means growth inhibition >= 80%; Not satisfied means growth inhibition < 80%.

Worked cases, answers included:
Molecule: Cn1c(-c2ccc(/C=N\N3CCN(/N=C/c4ccc(-c5c[n+]6ccsc6n5C)cc4)CC3)cc2)c[n+]2ccsc12
Discrete Label: Not satisfied

Molecule: [N-]=[N+]=NC1(c2ccccc2)C(=O)Nc2ccccc2C1=O (stereo unspecified)
Discrete Label: Not satisfied

Molecule: CCOC(=S)SSSC(=S)OCC
Discrete Label: Satisfied

Molecule: CCC(OC(C)=O)C1CC(C(C)C)CCC1C (stereo unspecified)
Discrete Label: Not satisfied

Molecule: COc1cc([N+](=O)[O-])c2ncccc2c1Br
Discrete Label: Not satisfied

Lookup: Hello, I need to know if NC(N)=NC(N)=Nc1ccccc1 (tested in a mixture with another compound) has measured growth inhibition not below 80%. Thanks!
Found: Not satisfied

Lookup: Record CC(CC/C(=N/O)c1ccccc1)(CC/C(=N\O)c1ccccc1)[N+](=O)[O-] (stereo unspecified) ; criterion: growth inhibition no lower than 80%. Met?
Found: Not satisfied

Lookup: Check the entry `CC(C)OC(=O)NNc1c(Cl)cc(Cl)cc1Cl` : does growth inhibition equal or exceed 80%?
Found: Not satisfied

Lookup: Answer whether growth inhibition of `CC1(C)CC(=O)C(C=NC(=S)C(N)=S)=C(O)C1` is greater than or equal to 80%.
Found: Not satisfied

Lookup: Does `S=C1N(c2ccc(Cl)cc2)C2=C(N=Nc3ccccc3)C(=Nc3ccccc3S2)N1c1ccccn1` have a reported growth inhibition of at least 80%?
Found: Satisfied

Origin of values: PubChem BioAssay (NCI)
